Target: T1, integrin αvβ3, purified from human placenta (human, UniProt P06756 31-1048; P05106 27-788)
T1 construct: mature; Native heterodimer, immobilized on ELISA plates or on the BIAcore chip; biotinylated in capture lift and capture ELISA screens; also called αvβ3 receptor; vitronectin receptor
T1 sequence (P06756 31-1048, form in doubt, chain 1 of 2): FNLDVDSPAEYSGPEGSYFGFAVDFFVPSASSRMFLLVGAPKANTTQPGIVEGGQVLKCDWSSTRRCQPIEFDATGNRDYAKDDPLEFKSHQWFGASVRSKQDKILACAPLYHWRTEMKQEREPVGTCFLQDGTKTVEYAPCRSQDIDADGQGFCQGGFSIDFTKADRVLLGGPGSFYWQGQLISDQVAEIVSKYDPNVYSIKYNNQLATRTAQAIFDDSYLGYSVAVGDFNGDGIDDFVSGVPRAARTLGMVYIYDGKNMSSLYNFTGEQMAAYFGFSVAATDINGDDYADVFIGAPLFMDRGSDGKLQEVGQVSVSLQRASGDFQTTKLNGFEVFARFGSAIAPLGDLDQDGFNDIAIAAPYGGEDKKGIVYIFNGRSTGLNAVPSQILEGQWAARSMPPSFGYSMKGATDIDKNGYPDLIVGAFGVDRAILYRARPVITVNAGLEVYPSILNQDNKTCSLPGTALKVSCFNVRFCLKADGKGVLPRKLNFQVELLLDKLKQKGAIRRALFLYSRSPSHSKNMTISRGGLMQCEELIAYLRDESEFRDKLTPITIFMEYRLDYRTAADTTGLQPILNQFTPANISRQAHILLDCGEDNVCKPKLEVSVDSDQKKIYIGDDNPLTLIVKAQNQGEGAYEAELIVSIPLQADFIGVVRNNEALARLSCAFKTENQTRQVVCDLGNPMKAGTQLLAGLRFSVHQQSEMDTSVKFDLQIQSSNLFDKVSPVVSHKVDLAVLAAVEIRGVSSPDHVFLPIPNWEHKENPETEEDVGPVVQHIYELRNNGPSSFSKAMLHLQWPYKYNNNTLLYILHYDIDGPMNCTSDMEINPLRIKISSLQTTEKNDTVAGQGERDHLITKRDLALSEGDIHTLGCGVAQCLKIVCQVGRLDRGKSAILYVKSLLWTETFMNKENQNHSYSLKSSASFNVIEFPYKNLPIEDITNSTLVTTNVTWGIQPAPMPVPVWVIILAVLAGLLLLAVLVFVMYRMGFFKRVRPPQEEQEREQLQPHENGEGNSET
T1 sequence (P05106 27-788, form in doubt, chain 2 of 2): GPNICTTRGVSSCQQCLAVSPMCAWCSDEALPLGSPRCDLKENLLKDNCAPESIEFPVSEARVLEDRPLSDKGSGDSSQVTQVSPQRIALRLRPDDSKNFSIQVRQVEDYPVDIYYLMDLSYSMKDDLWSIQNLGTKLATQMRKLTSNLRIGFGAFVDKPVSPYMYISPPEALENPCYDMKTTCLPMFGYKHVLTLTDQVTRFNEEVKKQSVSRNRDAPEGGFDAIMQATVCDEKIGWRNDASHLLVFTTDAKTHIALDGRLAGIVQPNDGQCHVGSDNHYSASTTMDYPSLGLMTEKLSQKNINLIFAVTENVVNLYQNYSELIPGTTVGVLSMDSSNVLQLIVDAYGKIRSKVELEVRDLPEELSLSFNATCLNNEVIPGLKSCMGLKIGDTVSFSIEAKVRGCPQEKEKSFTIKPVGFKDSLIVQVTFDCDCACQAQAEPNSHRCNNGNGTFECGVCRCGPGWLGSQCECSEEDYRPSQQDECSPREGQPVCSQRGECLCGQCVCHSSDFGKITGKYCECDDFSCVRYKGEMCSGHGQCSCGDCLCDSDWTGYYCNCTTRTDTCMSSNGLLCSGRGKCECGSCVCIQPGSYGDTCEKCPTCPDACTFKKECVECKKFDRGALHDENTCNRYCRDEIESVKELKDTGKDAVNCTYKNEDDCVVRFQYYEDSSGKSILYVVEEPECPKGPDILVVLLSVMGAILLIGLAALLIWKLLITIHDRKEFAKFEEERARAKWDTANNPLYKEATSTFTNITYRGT
Assay: SPR (BIAcore), purified Fab over immobilized αvβ3
readout.kind: koff (s⁻¹)
Please reply with the bare figure in s⁻¹ and do not write the unit itself.

-- ask Request the reported koff associated with LM609 grafted antibody combinatorial clone C59 (Fab, V domains shown, Fab) VH: QVQLVESGGGVVQPGRSLRLSCAASGFTFSSYDMSWVRQAPGKGLEWVAKVSSGGGSTYYPDTVQGRFTISRDNSKNTLYLQMNSLRAEDTAVYYCARHNYGSFADWGQGTTVTVSS VL: EIVLTQSPATLSLSPGERATLSCQASQSISNFLHWYQQRPGQAPRLLIRYRSQSISGIPARFSGSGSGTDFTLTISSLEPEDFAVYYCQQSGSWPHTFGGGTKVEIK
-- reply 0.000137

Values from patent US20060204492A1
